Below, each entry is listed with its recorded TGI.
test system: MDA-MB-468 breast; assay: NCI tumour cell line growth inhibition, 48 h
property-name: TGI (µM)

>>> reported("O=C1NC(=NCCCc2ccccc2)S/C1=C\\c1ccc2ncccc2c1")
17.4
>>> reported("CC[C@H](C)[C@H](NC(=O)[C@H]1CCCCN1C)C(=O)N(C)[C@H](C[C@@H](OC(C)=O)c1nc(C(=O)N[C@@H](Cc2ccccc2)C[C@H](C)C(=O)O)cs1)C(C)C")
0.00398
>>> reported("CCCn1c(=O)c2[nH]c(-c3ccc(OCc4nc5ccc(C)cc5[nH]4)cc3)nc2n(CCC)c1=O")
27.6
>>> reported("CN1CCN(c2nc(-c3cnc4ccccc4n3)cc3ccccc23)CC1")
10.6
>>> reported("COc1ccc(N=N/C(C(=O)C(F)(F)F)=C(\\O)c2ccc(Cl)cc2)cc1")
5.68
>>> reported("CN1CCN(CCCOc2cccc3nc(Nc4ccc(Cl)c(C(F)(F)F)c4)ccc23)CC1")
3.22
>>> reported("NC(=S)c1c(N)n(C2OC(CO)C(O)C2O)c2ncnc(N)c12 (centres undefined)")
0.326
>>> reported("CC[n+]1c(/C=C/C=C2\\N(C)c3ccccc3C2(C)C)sc2ccccc21")
8.44
>>> reported("c1ccc2c3c([nH]c2c1)C(c1ccc(C2NCCc4c2[nH]c2ccccc42)cc1)NCC3 (centres undefined)")
1.34
>>> reported("CC1OC(O[C@@H]2[C@H](O)C(CO)OC(O[C@H]3COC(O[C@H]4CC[C@]5(C)[C@H]6CC[C@]78OC[C@@]9(CCC(C)(C)C[C@H]97)[C@H](O)C[C@@]8(C)[C@]6(C)CC[C@H]5C4(C)C)[C@@H](OC4OC(CO)[C@@H](O)[C@@H](O)[C@@H]4O)[C@@H]3O)[C@H]2OC2OC[C@@H](O)[C@@H](O)[C@@H]2O)[C@@H](O)[C@@H](O)[C@H]1O (some centres undefined)")
4.33
>>> reported("c1ccc(C(=C(c2ccc(OCCN3CCCCC3)cc2)c2ccc(OCCN3CCCCC3)cc2)C2CCCC2)cc1")
5.19
